- assay-system: human Peroxisome Proliferator-activated Receptor alpha (PPARa), PPARA (gene 5465) (UniProt Q07869)
- Sequence (Q07869 whole entry, looked up): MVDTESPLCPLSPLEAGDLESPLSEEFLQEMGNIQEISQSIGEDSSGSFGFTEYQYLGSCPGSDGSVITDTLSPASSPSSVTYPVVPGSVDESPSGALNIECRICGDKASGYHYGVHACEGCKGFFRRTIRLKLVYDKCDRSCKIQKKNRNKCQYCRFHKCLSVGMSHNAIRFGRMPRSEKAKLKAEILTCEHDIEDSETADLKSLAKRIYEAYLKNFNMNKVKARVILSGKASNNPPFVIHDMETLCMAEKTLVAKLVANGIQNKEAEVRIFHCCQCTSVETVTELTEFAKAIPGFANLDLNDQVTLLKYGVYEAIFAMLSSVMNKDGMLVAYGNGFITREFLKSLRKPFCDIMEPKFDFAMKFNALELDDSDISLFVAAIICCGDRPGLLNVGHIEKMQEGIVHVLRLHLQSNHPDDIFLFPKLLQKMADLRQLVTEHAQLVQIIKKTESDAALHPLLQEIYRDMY
- experiment: ATG_PPARa_TRANS: Attagene TRANS-FACTORIAL HepG2 Assay for human Peroxisome Proliferator-activated Receptor alpha (PPARa) (AID 2283001)
Inconclusive results are not listed. Activity calls are given as the source filed them. The calls were made as follows: active = hit-call score of the fitted dose curve at least 0.9, where 1 is the maximum; inconclusive = response in the unintended direction; inactive = score below 0.9.
Outcomes: True (active), False (inactive)

[
  {
    "compound": "CC/C(=C\\C(=N/O)C(N)=O)C(C)[N+](=O)[O-] (configuration not stated)",
    "cat": "False"
  },
  {
    "compound": "CC(C)=CCC/C(C)=C\\CO",
    "cat": "False"
  },
  {
    "compound": "O=c1n(CC2CO2)c(=O)n(CC2CO2)c(=O)n1CC1CO1 (configuration not stated)",
    "cat": "False"
  },
  {
    "compound": "CC(C)=CCCC(C)CCO (configuration not stated)",
    "cat": "True"
  },
  {
    "compound": "CCCCCCc1ccc(O)cc1O",
    "cat": "False"
  },
  {
    "compound": "O=C(O)CC(O)C(=O)O (configuration not stated)",
    "cat": "False"
  },
  {
    "compound": "CCC(C)(C)C(=O)O[C@H]1C[C@@H](C)C=C2C=C[C@H](C)[C@H](CC[C@@H]3C[C@@H](O)CC(=O)O3)[C@H]21",
    "cat": "False"
  },
  {
    "compound": "O=C(O)CCN(C1(C(=O)NO)CCCC1)S(=O)(=O)c1ccc(Oc2ccc(F)cc2)cc1",
    "cat": "False"
  },
  {
    "compound": "O=C1CCCCCN1",
    "cat": "True"
  },
  {
    "compound": "C1N2CN3CN1CN(C2)C3",
    "cat": "False"
  },
  {
    "compound": "Cc1ccc(S(=O)(=O)O)cc1C",
    "cat": "False"
  },
  {
    "compound": "COc1ccc2sc(C(=O)Nc3nnn[nH]3)c(OC(C)C)c2c1",
    "cat": "False"
  },
  {
    "compound": "Nc1ccc(Nc2ccccc2)cc1",
    "cat": "False"
  },
  {
    "compound": "CC(=O)OCCC(C)C",
    "cat": "False"
  },
  {
    "compound": "CC[C@H]1CC[C@H](NCc2cc3c(cc2OC)[C@H]2C[C@H]2C(=O)N3C)[C@H](c2ccccc2)N1",
    "cat": "False"
  },
  {
    "compound": "CC(=O)c1ccc2c(c1)[C@H](NC(=O)c1ccc(F)cc1)[C@@H](O)C(C)(C)O2",
    "cat": "False"
  },
  {
    "compound": "CCc1cc(SCc2sc(-c3ccc(C(F)(F)F)cc3)nc2CN2CCN(c3ccc(OC)cc3)CC2)ccc1OCC(=O)O",
    "cat": "True"
  },
  {
    "compound": "CC(C)=CCC/C(C)=C/CO",
    "cat": "False"
  },
  {
    "compound": "CC(C)=CCCC(C)=CC=O",
    "cat": "True"
  },
  {
    "compound": "CCNc1ccccc1",
    "cat": "False"
  },
  {
    "compound": "CCCCC(CC)COC(=O)CCCCCCCCC(=O)OCC(CC)CCCC (configuration not stated)",
    "cat": "False"
  },
  {
    "compound": "CCOC(=O)COc1ccc2c(c1)CC(NCC(O)c1cccc(Cl)c1)CC2 (configuration not stated)",
    "cat": "True"
  },
  {
    "compound": "Oc1ccc2c(c1)-c1ccccc1C2",
    "cat": "False"
  },
  {
    "compound": "CC(C)CCO",
    "cat": "False"
  },
  {
    "compound": "Cc1ccc(N)cc1O",
    "cat": "False"
  },
  {
    "compound": "O=C(O)c1cccc(N(Cc2cccnc2)c2ccc(OC(F)F)c(OC(F)F)c2)c1",
    "cat": "False"
  },
  {
    "compound": "Cc1[nH]cnc1C[C@H]1CCc2c(C)c3ccccc3n2C1=O",
    "cat": "False"
  }
]

---

- Read-out: Insulin Like Growth Factor 1 (IGF1), IGF1 (gene 3479)
- experiment: LTEA_HepaRG_IGF1: Life Technologies and Expression Analysis (LTEA) Assay for Insulin Like Growth Factor 1 (IGF1) using HepaRG (AID 2283506)
- details: mRNA level, 48 h; actives raise or lower the signal
Active and inactive are the calls of the source. The calls were made as follows: active = hit-call score of the fitted dose curve at least 0.9, where 1 is the maximum; inactive = score below 0.9.
Outcomes: active, inactive

[
  {
    "compound": "O=C1CCCCCN1",
    "cat": "inactive"
  },
  {
    "compound": "O=C1CCC(N2C(=O)c3ccccc3C2=O)C(=O)N1 (stereo unspecified)",
    "cat": "inactive"
  },
  {
    "compound": "COc1cccc(-c2ccc(/C=C\\CN3CCCCCC3)cc2Cl)c1",
    "cat": "active"
  },
  {
    "compound": "CC(=O)c1ccc2c(c1)[C@H](NC(=O)c1ccc(F)cc1)[C@@H](O)C(C)(C)O2",
    "cat": "inactive"
  },
  {
    "compound": "CC1(C)C(=O)N(Br)C(=O)N1Br",
    "cat": "inactive"
  },
  {
    "compound": "COC(=O)c1c(Cl)c(Cl)c(C(=O)OC)c(Cl)c1Cl",
    "cat": "inactive"
  }
]

---

- experiment: ATG_VDRE_CIS: Attagene CIS-FACTORIAL HepG2 Assay for human Vitamin D Receptor Element (VDRE) (AID 2282968)
- details: HepG2 VDRE cis-reporter transcription, actives raise or lower the signal
The source made the active and inactive calls. The calls were made as follows: active = hit-call score of the fitted dose curve at least 0.9, where 1 is the maximum; inactive = score below 0.9.
Outcomes: active, inactive

[
  {
    "compound": "CCCN(C1CCN(C(=O)C2CCNCC2)CC1)[C@@H]1CCc2ccc(OC)cc2C1",
    "cat": "inactive"
  },
  {
    "compound": "CNS(=O)(=O)c1cc(C(=O)N2CCC(CCN3C4CCC3CC(n3c(C)nc5ccccc53)C4)(c3cccc(F)c3)CC2)c(Cl)cc1F (configuration not stated)",
    "cat": "active"
  },
  {
    "compound": "CC(C)CCCCCCOC(=O)c1ccc(C(=O)OCCCCCCC(C)C)c(C(=O)OCCCCCCC(C)C)c1",
    "cat": "inactive"
  },
  {
    "compound": "Cc1ccc(S(=O)(=O)O)cc1C",
    "cat": "inactive"
  },
  {
    "compound": "Cc1ccc(C)c(O)c1",
    "cat": "inactive"
  },
  {
    "compound": "C=CCCCCCCCCC(=O)O",
    "cat": "inactive"
  },
  {
    "compound": "COC(=O)c1c(Cl)c(Cl)c(C(=O)OC)c(Cl)c1Cl",
    "cat": "inactive"
  },
  {
    "compound": "CC/C(=C\\C(=N/O)C(N)=O)C(C)[N+](=O)[O-] (configuration not stated)",
    "cat": "inactive"
  },
  {
    "compound": "O=C(O)c1cccc(N(Cc2cccnc2)c2ccc(OC(F)F)c(OC(F)F)c2)c1",
    "cat": "inactive"
  },
  {
    "compound": "CC(C)=CCC/C(C)=C/CO",
    "cat": "inactive"
  },
  {
    "compound": "CN(C)c1ccc(N=NS(=O)(=O)O)cc1",
    "cat": "inactive"
  },
  {
    "compound": "CC(O)CN(CCN(CC(C)O)CC(C)O)CC(C)O (configuration not stated)",
    "cat": "inactive"
  },
  {
    "compound": "CC(C)(O)c1coc(S(=O)(=O)NC(=O)Nc2c3c(cc4c2CCC4)CCC3)c1",
    "cat": "active"
  },
  {
    "compound": "CC[C@H]1CC[C@H](NCc2cc3c(cc2OC)[C@H]2C[C@H]2C(=O)N3C)[C@H](c2ccccc2)N1",
    "cat": "active"
  },
  {
    "compound": "CCOCCOCCOCCO",
    "cat": "inactive"
  },
  {
    "compound": "Clc1nc(Cl)c(Cl)c(Cl)c1Cl",
    "cat": "inactive"
  },
  {
    "compound": "COCCOc1cc2cc(C(=O)NC3CCN(C(C)C)CC3)n(CC(=O)Nc3ccc(Cl)cn3)c2cn1",
    "cat": "active"
  },
  {
    "compound": "C1N2CN3CN1CN(C2)C3",
    "cat": "inactive"
  },
  {
    "compound": "O=C(O)c1cc(N=Nc2ccc(S(=O)(=O)Nc3ccccn3)cc2)ccc1O",
    "cat": "inactive"
  },
  {
    "compound": "Cc1c(-c2cccnc2)c2ccccc2n1CCCCC(=O)O",
    "cat": "inactive"
  },
  {
    "compound": "O=C(O)c1cccc(Oc2ccccc2)c1",
    "cat": "inactive"
  },
  {
    "compound": "C[C@](N)(Cc1ccc(O)c(O)c1)C(=O)O",
    "cat": "inactive"
  },
  {
    "compound": "CCCCCCCCO",
    "cat": "inactive"
  },
  {
    "compound": "CC[C@H]1OC(=O)[C@H](C)[C@@H](O[C@H]2C[C@@](C)(OC)[C@@H](O)[C@H](C)O2)[C@H](C)[C@@H](O[C@@H]2O[C@H](C)C[C@H](N(C)C)[C@H]2O)[C@](C)(O)C[C@@H](C)C(=O)[C@H](C)[C@@H](O)[C@]1(C)O",
    "cat": "inactive"
  },
  {
    "compound": "O=C(O)CCN(C1(C(=O)NO)CCCC1)S(=O)(=O)c1ccc(Oc2ccc(F)cc2)cc1",
    "cat": "inactive"
  },
  {
    "compound": "COc1ccc2sc(C(=O)Nc3nnn[nH]3)c(OC(C)C)c2c1",
    "cat": "active"
  },
  {
    "compound": "CCOC(=O)c1ccc(C2CCC(NC[C@H](O)COc3ccc(O)c(NS(C)(=O)=O)c3)CC2)cc1 (some centres not stated)",
    "cat": "active"
  },
  {
    "compound": "CC(C)CCCCCCCOC(=O)CCCCC(=O)OCCCCCCCC(C)C",
    "cat": "inactive"
  },
  {
    "compound": "COc1ccc(/C=C/S(=O)(=O)NC(=O)c2ccc(C)cc2Cl)cc1",
    "cat": "inactive"
  },
  {
    "compound": "CC[C@H](C)C(=O)O[C@H]1C[C@@H](C)C=C2C=C[C@H](C)[C@H](CC[C@@H]3C[C@@H](O)CC(=O)O3)[C@H]21",
    "cat": "active"
  },
  {
    "compound": "O=P(OC(CCl)CCl)(OC(CCl)CCl)OC(CCl)CCl",
    "cat": "active"
  },
  {
    "compound": "CCCCC(CC)COC(=O)CCCCCCCCC(=O)OCC(CC)CCCC (configuration not stated)",
    "cat": "inactive"
  },
  {
    "compound": "CCCCCCCCCCCCc1ccccc1",
    "cat": "inactive"
  },
  {
    "compound": "COC(=O)CC(=O)OC",
    "cat": "inactive"
  },
  {
    "compound": "CCOC(=O)COc1ccc2c(c1)CC(NCC(O)c1cccc(Cl)c1)CC2 (configuration not stated)",
    "cat": "inactive"
  },
  {
    "compound": "CN(C)c1ccc(Cc2ccc(N(C)C)cc2)cc1",
    "cat": "active"
  },
  {
    "compound": "CCn1nc(Cc2ccccc2)cc1C1CCN(C[C@H]2C[C@H](N(C)[C@@H](C(=O)O)C(C)C)C[C@@H]2c2cccc(F)c2)CC1",
    "cat": "inactive"
  },
  {
    "compound": "Cc1ccc(N)cc1O",
    "cat": "inactive"
  },
  {
    "compound": "Cc1[nH]cnc1C[C@H]1CCc2c(C)c3ccccc3n2C1=O",
    "cat": "active"
  },
  {
    "compound": "CCOCCO",
    "cat": "inactive"
  },
  {
    "compound": "COc1ccc(-n2nc(C(F)F)cc2-c2ccc(S(C)=O)cc2)cc1 (configuration not stated)",
    "cat": "inactive"
  },
  {
    "compound": "C1=CCCC=CCCC=CCC1",
    "cat": "inactive"
  },
  {
    "compound": "CCCC(=O)OCC",
    "cat": "inactive"
  },
  {
    "compound": "CCNc1ccccc1",
    "cat": "inactive"
  },
  {
    "compound": "NC(=O)NO",
    "cat": "inactive"
  },
  {
    "compound": "Oc1ccc2c(c1)-c1ccccc1C2",
    "cat": "active"
  },
  {
    "compound": "CC(C)CCO",
    "cat": "inactive"
  }
]
